Test system: PPARg:RXRa DBDmut IVT, anti-RXR (DBD mutation: RXRa K156A/R161A, NR concentration 270 nM, RXRa partner concentration 90 nM)
Test: PBM binding z-score (relative to random genomic background probes); higher = stronger binding; sequences stand for … in GC…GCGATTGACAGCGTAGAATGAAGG
Mark Satisfied for reported PBM binding z-score of 3 or greater; mark Not satisfied for anything smaller.

Assess whether reported PBM binding z-score for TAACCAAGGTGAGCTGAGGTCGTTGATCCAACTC sits at 3 or higher.
Not satisfied

Same read-out for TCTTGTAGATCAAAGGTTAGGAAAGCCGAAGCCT ?
Not satisfied

One more sequence: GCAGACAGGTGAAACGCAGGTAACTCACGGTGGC
Not satisfied

Param item: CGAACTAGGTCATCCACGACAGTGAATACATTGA
Satisfied

Next record, please: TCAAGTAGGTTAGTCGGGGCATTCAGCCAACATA
Satisfied

Then this sequence: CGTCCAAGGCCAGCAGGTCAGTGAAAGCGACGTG
Not satisfied

Now this one: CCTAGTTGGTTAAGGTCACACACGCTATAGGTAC
Not satisfied

What about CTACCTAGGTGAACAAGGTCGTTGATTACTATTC ?
Satisfied

Same read-out for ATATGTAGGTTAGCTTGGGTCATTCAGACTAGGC ?
Satisfied

Then this sequence: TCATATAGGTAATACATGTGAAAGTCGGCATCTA
Satisfied

Also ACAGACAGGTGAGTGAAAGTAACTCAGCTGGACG , if possible.
Not satisfied

Record: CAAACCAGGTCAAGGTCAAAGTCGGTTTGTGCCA
Satisfied

Now consider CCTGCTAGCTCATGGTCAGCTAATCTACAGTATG .
Not satisfied

Subsequent entry: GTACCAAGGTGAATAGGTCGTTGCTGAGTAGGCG
Not satisfied

Query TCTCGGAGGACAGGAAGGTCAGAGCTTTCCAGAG next
Not satisfied

Consider next the sequence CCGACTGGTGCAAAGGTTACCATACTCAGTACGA in the same way.
Not satisfied

Check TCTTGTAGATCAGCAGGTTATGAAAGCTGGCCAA too.
Not satisfied

Same question, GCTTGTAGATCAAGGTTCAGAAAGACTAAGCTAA this time
Not satisfied

Also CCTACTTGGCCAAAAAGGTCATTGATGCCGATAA , if possible.
Not satisfied

Now consider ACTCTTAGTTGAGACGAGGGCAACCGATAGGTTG .
Not satisfied

Try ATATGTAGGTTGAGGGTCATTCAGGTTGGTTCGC next.
Satisfied

Entry to check: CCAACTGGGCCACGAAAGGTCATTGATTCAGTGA
Satisfied

Item: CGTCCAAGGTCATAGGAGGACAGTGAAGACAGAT
Not satisfied

Then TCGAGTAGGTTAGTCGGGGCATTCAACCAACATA ?
Not satisfied

What about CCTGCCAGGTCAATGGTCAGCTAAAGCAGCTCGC ?
Not satisfied

----------
Please respond with reported PBM binding z-score for every item in the list.
Test system: VDR homodimer (NR concentration 270 nM)
Assay: PBM binding z-score (relative to random genomic background probes); higher = stronger binding; sequences stand for … in GC…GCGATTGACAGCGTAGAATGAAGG

Param item = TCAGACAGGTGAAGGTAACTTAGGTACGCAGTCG ; retrieve measured PBM binding z-score.
0.508

Another sequence to check: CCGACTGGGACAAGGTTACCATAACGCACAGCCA
-0.0253

Next sequence: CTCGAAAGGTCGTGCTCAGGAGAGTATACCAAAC
1.36

Same read-out for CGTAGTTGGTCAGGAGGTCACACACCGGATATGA ?
3.08

Same lookup for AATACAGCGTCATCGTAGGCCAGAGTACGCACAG , please.
-0.00282

Lookup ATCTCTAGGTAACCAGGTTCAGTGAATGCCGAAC
2.53

----------
Test system: PPARg homodimer (NR concentration 180 nM)
Test: PBM binding z-score (relative to random genomic background probes); higher = stronger binding; sequences stand for … in GC…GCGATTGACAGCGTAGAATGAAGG
Readout Kind: PBM binding z-score
Please state the value as a number alone, without comment.

Record request: PBM binding z-score value, item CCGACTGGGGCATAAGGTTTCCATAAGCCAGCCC
-0.419

Cool, now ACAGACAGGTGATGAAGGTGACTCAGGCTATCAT
0.791

Would you kindly repeat that for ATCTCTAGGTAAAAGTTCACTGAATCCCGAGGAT ?
1.29

Cool, now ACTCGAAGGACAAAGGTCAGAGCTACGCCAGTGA
2.57

What do you get for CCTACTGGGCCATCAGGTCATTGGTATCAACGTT ?
1.09

Would you mind doing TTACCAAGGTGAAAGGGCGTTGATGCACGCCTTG as well?
0.404

Try this sequence too: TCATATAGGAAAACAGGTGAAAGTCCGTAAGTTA
0.804

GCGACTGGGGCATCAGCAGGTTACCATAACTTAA , same question.
0.771

Repeat for the following sequence: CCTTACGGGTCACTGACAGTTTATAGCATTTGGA
2.21

What about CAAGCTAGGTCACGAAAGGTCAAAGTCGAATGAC ?
7.93

Same question, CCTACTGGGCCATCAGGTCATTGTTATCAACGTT this time
1.35

Similarly, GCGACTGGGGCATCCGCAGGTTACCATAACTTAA ?
-0.268

----------
System: THRa homodimer (NR concentration 90 nM)
Experiment: PBM binding z-score (relative to random genomic background probes); higher = stronger binding; sequences stand for … in GC…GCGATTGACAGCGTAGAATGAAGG
Each entry gets label 0 if its PBM binding z-score stays under 0.3, and label 1 if its PBM binding z-score is 0.3 or above.

Does the reported PBM binding z-score for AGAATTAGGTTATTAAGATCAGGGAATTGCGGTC fall at or above the 0.3 mark?
label 1

Moving on to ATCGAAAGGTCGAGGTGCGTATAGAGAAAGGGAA
label 0

Again, but for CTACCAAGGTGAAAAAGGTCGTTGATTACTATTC
label 1

For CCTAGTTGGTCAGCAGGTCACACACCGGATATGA then?
label 1

How about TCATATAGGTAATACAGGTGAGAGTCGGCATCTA ?
label 0

Same question for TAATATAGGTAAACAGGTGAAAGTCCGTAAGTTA please.
label 1

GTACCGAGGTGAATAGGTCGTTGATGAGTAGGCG , same question.
label 1

Record: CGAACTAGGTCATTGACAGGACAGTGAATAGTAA
label 1

Again, but for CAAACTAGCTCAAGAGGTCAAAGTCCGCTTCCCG
label 1

Again, but for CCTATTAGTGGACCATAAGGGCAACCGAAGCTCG
label 1

And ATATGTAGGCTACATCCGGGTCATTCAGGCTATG ?
label 1

Repeat for the following sequence: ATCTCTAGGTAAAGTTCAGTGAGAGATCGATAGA
label 0

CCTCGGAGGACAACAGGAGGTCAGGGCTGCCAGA ?
label 1

Now try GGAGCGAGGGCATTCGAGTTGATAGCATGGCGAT .
label 0

Thanks! And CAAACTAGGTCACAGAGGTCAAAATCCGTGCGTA ?
label 1

And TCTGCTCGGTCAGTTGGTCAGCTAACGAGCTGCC ?
label 0

# iterate: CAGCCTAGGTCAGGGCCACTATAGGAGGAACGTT
label 1

Here is the next sequence: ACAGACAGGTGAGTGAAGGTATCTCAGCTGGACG
label 0

Also need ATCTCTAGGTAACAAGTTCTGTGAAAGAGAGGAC , thanks.
label 1

How about this sequence: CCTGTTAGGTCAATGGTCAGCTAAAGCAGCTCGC
label 1

What do we get for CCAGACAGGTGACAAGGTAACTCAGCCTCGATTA ?
label 1

Repeat for the following sequence: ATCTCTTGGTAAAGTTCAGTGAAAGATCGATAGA
label 0

Then what about the sequence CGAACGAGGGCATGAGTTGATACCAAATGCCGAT ?
label 0

Follow-up item: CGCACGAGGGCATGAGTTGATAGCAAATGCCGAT
label 0

Can you handle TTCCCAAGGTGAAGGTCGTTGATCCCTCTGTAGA next?
label 1

# iterate: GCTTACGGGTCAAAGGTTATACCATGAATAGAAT
label 0

Also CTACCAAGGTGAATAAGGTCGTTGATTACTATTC ?
label 1

Param item: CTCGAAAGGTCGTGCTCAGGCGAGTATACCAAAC
label 0

Same read-out for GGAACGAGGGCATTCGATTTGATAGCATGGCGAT ?
label 0

Next sequence up: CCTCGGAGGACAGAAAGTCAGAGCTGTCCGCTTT
label 0

Now consider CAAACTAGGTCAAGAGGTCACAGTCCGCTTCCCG and answer again.
label 1

Here is the next sequence: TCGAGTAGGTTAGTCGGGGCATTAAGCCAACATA
label 0

Record: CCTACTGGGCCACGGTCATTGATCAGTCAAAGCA
label 0

Further, for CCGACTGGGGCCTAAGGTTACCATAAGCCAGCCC ?
label 1

And then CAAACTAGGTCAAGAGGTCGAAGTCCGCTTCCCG , what is it?
label 1

Entry CAAACTAGGTCACGAAAGGTCAAAGTCGAATGAC please
label 1

Item: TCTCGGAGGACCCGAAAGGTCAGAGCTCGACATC
label 1

Now this one: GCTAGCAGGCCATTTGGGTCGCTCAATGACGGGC
label 0

Can you handle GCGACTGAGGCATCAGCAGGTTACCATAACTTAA next?
label 0

Field entry: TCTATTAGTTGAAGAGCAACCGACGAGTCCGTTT
label 0

Also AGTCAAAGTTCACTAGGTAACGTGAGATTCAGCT ?
label 0

Same question for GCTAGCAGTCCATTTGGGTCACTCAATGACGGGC please.
label 1

Query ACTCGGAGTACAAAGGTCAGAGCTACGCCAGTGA next
label 0

How about this sequence: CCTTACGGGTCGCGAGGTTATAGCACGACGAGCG
label 1

Quick one: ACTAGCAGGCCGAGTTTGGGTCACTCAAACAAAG
label 1

Next sequence: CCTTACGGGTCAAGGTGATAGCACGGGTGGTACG
label 1

Then what about the sequence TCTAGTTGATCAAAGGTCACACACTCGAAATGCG ?
label 1

Please do the same for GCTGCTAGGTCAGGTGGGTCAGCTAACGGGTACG as well.
label 1

Same question, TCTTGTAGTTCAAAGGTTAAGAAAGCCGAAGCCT this time
label 0

Now consider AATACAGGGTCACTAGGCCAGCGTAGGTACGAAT and answer again.
label 1

Now try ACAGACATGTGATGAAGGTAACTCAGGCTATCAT .
label 0
